- Subject Of Test: T1, human GARP (glycoprotein A repetitions predominant, LRRC32) on the cell surface (human, UniProt Q14392 20-662)
- T1 construct: whole, on cells; also called hGARP; free GARP
- T1 sequence (looked up): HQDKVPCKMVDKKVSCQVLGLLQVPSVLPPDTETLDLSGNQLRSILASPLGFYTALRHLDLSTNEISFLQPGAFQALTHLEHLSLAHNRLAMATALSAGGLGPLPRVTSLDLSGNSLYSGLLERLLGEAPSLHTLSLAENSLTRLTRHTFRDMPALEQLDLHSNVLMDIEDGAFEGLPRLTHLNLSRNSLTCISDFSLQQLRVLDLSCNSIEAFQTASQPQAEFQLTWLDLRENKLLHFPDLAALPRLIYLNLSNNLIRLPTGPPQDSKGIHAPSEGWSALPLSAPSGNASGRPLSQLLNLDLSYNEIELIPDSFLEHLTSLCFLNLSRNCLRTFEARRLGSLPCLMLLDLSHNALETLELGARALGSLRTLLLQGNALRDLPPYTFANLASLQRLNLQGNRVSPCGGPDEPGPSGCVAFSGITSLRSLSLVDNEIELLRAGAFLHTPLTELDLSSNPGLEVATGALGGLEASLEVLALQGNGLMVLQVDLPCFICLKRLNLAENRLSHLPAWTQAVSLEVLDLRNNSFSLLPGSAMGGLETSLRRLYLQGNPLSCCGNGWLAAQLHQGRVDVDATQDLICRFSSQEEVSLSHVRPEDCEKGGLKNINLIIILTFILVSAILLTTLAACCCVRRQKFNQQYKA
- Protocol: FACS, Ag(+) cells, culture supernatant, 5 ug/ml
Readout Kind: MFI (MFI)
Write it as a number; the unit MFI goes unstated.

Binder	Readout Kind	Units Of Measure	Experimental Result
huPIIO-1VH4VL2 (antibody, V domains shown, Humanized IgG from Expi293, tested as culture supernatant; also called H4L2; HuPIIO-1VH4/L2) VH: DVQLQESGPGLVKPSQTLSLTCTVSGYSITSDYAWNWIRQFPGNKLEWMGYISYSGSTSYTPSLKSRITISRDTSKNHFFLQLSSVTAEDTATYYCAKSGGDYYGSSSYWYFDVWGQGTTVTVSS VL: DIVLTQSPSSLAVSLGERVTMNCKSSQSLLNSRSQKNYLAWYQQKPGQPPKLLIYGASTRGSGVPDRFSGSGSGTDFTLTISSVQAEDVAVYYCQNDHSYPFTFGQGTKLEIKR	MFI	MFI	26.3

Consider the record given below.
What value of MFI has been reported for the following binder? huPIIO-1VH3VL3 (antibody, V domains shown, Humanized IgG from Expi293, tested as culture supernatant; also called H3L3; HuPIIO-1VH3/L3) VH: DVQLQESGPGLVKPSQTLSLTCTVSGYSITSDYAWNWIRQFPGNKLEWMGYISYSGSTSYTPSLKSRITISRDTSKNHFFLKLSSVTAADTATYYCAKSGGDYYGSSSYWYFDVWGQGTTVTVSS VL: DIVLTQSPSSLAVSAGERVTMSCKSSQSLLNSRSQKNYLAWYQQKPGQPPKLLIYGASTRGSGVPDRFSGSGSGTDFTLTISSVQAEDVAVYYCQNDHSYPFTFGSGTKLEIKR
26.2

Attribution: patent US20240425571A1
